Origin of values: patent EP4818189A1

- run-description: Mouse pharmacokinetic detection
- Type: in vivo
- condition-summary: plasma, CD1 mice, oral gavage 10 mg/kg vs intravenous 10 mg/kg
- Method: The detection was carried out in 6-8-week-old CD1 mice (purchased from: Speifu (Beijing) Biotechnology Co., Ltd.). […] The concentration of the compound in a plasma sample was analyzed by LC-MS/MS. Pharmacokinetic calculation was carried out by using WinNonlin (Phoenix™, Version 8.3) or other similar software. The following pharmacokinetic parameters were calculated based on plasma concentration and time data: Oral administration: AUClast, bioavailability (F). […]
Where a SMILES comes first, the peptide text is derived from it. [ ]: non-standard residue; d: D form. pGlu = O=C1CC[C@@H](C(=O)O)N1; Aze = O=C(O)[C@@H]1CCN1; dAze = O=C(O)[C@H]1CCN1
The class of a record is decided solely by its measured bioavailability; consult 0: < 40%; 1: ≥ 40% and < 90%; 2: ≥ 90%

Use the examples below as a reference point.
# compound, class
records = [
    ("[2H]C([2H])([2H])C(=O)N1CC[C@@H]1C(=O)N[C@H](c1ncco1)C(C)C", 2),
    ("COC(=O)[C@@H](NC(=O)C1CCN1C(=O)C1CC1)C(C)C (stereo partly drawn)", 0),
    ("CC(=O)N1CC[C@@H]1C(=O)NC(c1cc2ccccc2[nH]1)C(C)C (stereo partly drawn)", 1),
    ("CC(C)C[C@H](NC(=O)[C@@H]1CCC(=O)N1)C(=O)O [D4-pEL, reference compound] ([pGlu]-Leu-OH)", 0),
]

Category of CC(=O)N1CCC1C(=O)N[C@H](c1ncc[nH]1)C(C)C (stereo partly drawn) , please. 1

Category of C[C@H](NC(=O)[C@@H]1CCCN1)C(=O)O [D5-PA, reference compound] (H-Pro-Ala-OH) , please. 0

Category of [2H]C([2H])([2H])OC(=O)[C@@H](NC(=O)C1CCN1C(C)=O)C(C)C (stereo partly drawn) , please. 1

Category of COC(=O)[C@@H](NC(=O)[C@@H]1CCN1C(C)=O)C(C)C [A-2-6] (Ac-[Aze]-Val-OMe) , please. 2

Category of CC(=O)N1CC[C@@H]1C(=O)N[C@@H](c1ccccn1)C(C)C , please. 1

Category of COC(=O)[C@@H](NC(=O)[C@H]1CCN1C(C)=O)C(C)C [A-2-7] (Ac-[dAze]-Val-OMe) , please. 1

* * *

- run-description: Mouse pharmacokinetic detection
- Assay type: in vivo
- condition-summary: plasma, CD1 mice, oral gavage 10 mg/kg
Where a SMILES comes first, the peptide text is derived from it. [ ]: non-standard residue; d: D form. Aze = O=C(O)[C@@H]1CCN1; dAze = O=C(O)[C@H]1CCN1
Outcome label depends on AUC(0-t) relative to 3000 ng·h/mL: at/above gives condition met, below gives condition not met.

Use the examples below as a reference point.
# compound, class
rows = [
    ("CC(=O)N1CC[C@@H]1C(=O)N[C@H](c1ncco1)C(C)C [B-2-41]", "condition met"),
    ("COC(=O)[C@@H](NC(=O)[C@@H]1CCN1C(C)=O)C(C)C [A-2-6] (Ac-[Aze]-Val-OMe)", "condition met"),
    ("COC(=O)[C@@H](NC(=O)C1CCN1C(=O)C1CC1)C(C)C (stereo partly drawn) [A-2-2]", "condition not met"),
]

Check the entry [2H]C([2H])([2H])C(=O)N1CC[C@H]1C(=O)N[C@H](C(=O)OC)C(C)C [A-2-8] : does AUC(0-t) equal or exceed 3000 ng·h/mL? condition met

Check the entry CC(=O)N1CC[C@@H]1C(=O)N[C@@H](c1ccccn1)C(C)C [B-2-8] : does AUC(0-t) equal or exceed 3000 ng·h/mL? condition not met

Check the entry COC(=O)[C@@H](NC(=O)[C@H]1CCN1C(C)=O)C(C)C [A-2-7] (Ac-[dAze]-Val-OMe) : does AUC(0-t) equal or exceed 3000 ng·h/mL? condition met

* * *

- run-description: Permeability detection in MDR1-MDCK II cell monolayer
- Type: in vitro ADME
- condition-summary: dog, pH 7.4; MDR1-MDCK II cells, 2 µM, 2.5 hours, basolateral to apical
Where a SMILES comes first, the peptide text is derived from it. [ ]: non-standard residue; d: D form. pGlu = O=C1CC[C@@H](C(=O)O)N1
Papp B→A at 2.5 h, 2 µM reference
Write the answer as a number in ×10⁻⁶ cm/s, unit excluded.

Example results:
# molecule, units-symbol, reading
records = [
    ("CC(C)C[C@H](NC(=O)[C@@H]1CCC(=O)N1)C(=O)O [D4-pEL, reference compound] ([pGlu]-Leu-OH)", "×10⁻⁶ cm/s", 0.302),
    ("CC(=O)N1CC[C@@H]1C(=O)N[C@H](c1ncco1)C(C)C", "×10⁻⁶ cm/s", 5.61),
    ("[2H]C([2H])([2H])C(=O)N1CC[C@@H]1C(=O)N[C@H](c1ncco1)C(C)C", "×10⁻⁶ cm/s", 3.22),
]

So, C[C@H](NC(=O)[C@@H]1CCCN1)C(=O)O [D5-PA, reference compound] (H-Pro-Ala-OH) ? Its Papp B→A at 2.5 h, 2 µM was 0.3

* * *

bioavailability reference
- run-description: Rat pharmacokinetic detection
- Format: in vivo
- condition-summary: plasma, male SD rats, oral gavage 15 mg/kg vs intravenous 10 mg/kg
Where a SMILES comes first, the peptide text is derived from it. [ ]: non-standard residue; d: D form. pGlu = O=C1CC[C@@H](C(=O)O)N1
Write the answer as a number in %, unit excluded.

Example results:
# compound, bioavailability / %
measured = [
    ("[2H]C([2H])([2H])C(=O)N1CC[C@@H]1C(=O)N[C@H](c1ncco1)C(C)C", 66),
    ("C[C@H](NC(=O)[C@@H]1CCCN1)C(=O)O [D5-PA, reference compound] (H-Pro-Ala-OH)", 0.71),
]

API: the following record is the query input.
So, CC(C)C[C@H](NC(=O)[C@@H]1CCC(=O)N1)C(=O)O [D4-pEL, reference compound] ([pGlu]-Leu-OH) ? Its bioavailability was 1.04

* * *

- run-description: Permeability detection in MDR1-MDCK II cell monolayer
- Type: in vitro ADME
- condition-summary: dog, pH 7.4; MDR1-MDCK II cells, 2 µM, 2.5 hours, apical to basolateral
Where a SMILES comes first, the peptide text is derived from it.
property: Papp A→B at 2.5 h, 2 µM (×10⁻⁶ cm/s)
Write the answer as a number in ×10⁻⁶ cm/s, unit excluded.

So, [2H]C([2H])([2H])C(=O)N1CC[C@@H]1C(=O)N[C@H](c1ncco1)C(C)C ? Its Papp A→B at 2.5 h, 2 µM was 2.42

So, C[C@H](NC(=O)[C@@H]1CCCN1)C(=O)O [D5-PA, reference compound] (H-Pro-Ala-OH) ? Its Papp A→B at 2.5 h, 2 µM was 0.15

So, CC(=O)N1CC[C@@H]1C(=O)N[C@H](c1ncco1)C(C)C ? Its Papp A→B at 2.5 h, 2 µM was 4.07

* * *

- System: MDR1-MDCK II cells
- run-description: Permeability detection in MDR1-MDCK II cell monolayer
- Type: in vitro ADME
- condition-summary: permeability rank
- Experimental: MDR1-MDCK II cells (imported from the Netherlands Cancer Institute) were seeded in a 96-well cell plate at a density of 3.33×10^5 cells/mL, and cultured in a carbon dioxide incubator for 4-7 days to form a cell monolayer. […] After the transport experiment was completed, an integrity of the MDR1-MDCK II cell layer was detected by a lucifer yellow detection experiment. […]
Where a SMILES comes first, the peptide text is derived from it. [ ]: non-standard residue; d: D form. pGlu = O=C1CC[C@@H](C(=O)O)N1

# compound, Rank Papp
measured = [
    ("[2H]C([2H])([2H])C(=O)N1CC[C@@H]1C(=O)N[C@H](c1ncco1)C(C)C [B-2-3]", "Moderate"),
    ("C[C@H](NC(=O)[C@@H]1CCCN1)C(=O)O [D5-PA, reference compound] (H-Pro-Ala-OH)", "Low"),
    ("CC(C)C[C@H](NC(=O)[C@@H]1CCC(=O)N1)C(=O)O [D4-pEL, reference compound] ([pGlu]-Leu-OH)", "Low"),
    ("CC(=O)N1CC[C@@H]1C(=O)N[C@H](c1ncco1)C(C)C [B-2-41]", "Moderate"),
]

* * *

- run-description: Mouse pharmacokinetic detection
- Assay type: in vivo
- condition-summary: in vivo, CD1 mice, oral gavage 10 mg/kg
property: AUC(0-t)
Note: a bare number is incomplete; add the unit.

So, [2H]C([2H])([2H])C(=O)N1CC[C@H]1C(=O)N[C@H](c1ncco1)C(C)C ? Its AUC(0-t) was 6950 ng·h/mL

So, COC(=O)[C@@H](NC(=O)c1ccc[nH]1)C(C)C ? Its AUC(0-t) was 154 ng·h/mL
